- tested system: T1, human IL-11Rα (human, UniProt Q14626 23-363, limits assumed)
- T1 construct: Protein coated on ELISA plates and used in solution for BLI; also called hIL-11Rα; hIL-11R
- T1 sequence: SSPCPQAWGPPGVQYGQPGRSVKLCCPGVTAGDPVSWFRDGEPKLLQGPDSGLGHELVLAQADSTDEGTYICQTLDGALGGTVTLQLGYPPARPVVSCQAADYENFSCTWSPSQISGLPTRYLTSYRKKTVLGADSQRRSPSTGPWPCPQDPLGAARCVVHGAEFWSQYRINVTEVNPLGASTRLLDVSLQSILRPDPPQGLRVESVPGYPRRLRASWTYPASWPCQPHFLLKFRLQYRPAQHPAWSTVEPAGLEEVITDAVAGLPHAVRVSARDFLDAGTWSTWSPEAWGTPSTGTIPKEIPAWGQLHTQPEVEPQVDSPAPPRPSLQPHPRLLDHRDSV
- assay name: BLI (Octet RED96e), mAb on anti-human constant domain (AHC) biosensors, hIL-11R in solution
assay endpoint: Kd (pM)
Value expressed in pM; do not type the unit.

mAb5 (antibody, V domains shown, Expressed as human IgG4 (S228P EU); also called mAb5 IL11RA Ab) VH: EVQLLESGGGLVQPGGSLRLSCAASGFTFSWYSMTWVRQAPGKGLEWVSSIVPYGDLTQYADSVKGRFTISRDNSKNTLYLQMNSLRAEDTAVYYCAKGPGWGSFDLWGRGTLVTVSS VL: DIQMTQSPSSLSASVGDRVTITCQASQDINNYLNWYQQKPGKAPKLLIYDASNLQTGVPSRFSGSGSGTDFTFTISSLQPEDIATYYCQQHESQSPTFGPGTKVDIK
50

Input: // lookup Kd for mAb29 (antibody, human IgG4, V domains shown, Expressed as human IgG4 (S228P EU)) VH: EVQLLESGGGLVQPGGSLRLSCAASGFTFSSYSMTWVRQAPGKGLEWVSSIVPYGDLTQYADSVKGRFTISRDNSKNTLYLQMNSLRAEDTAVYYCAKGPGWGSFDLWGRGTLVTVSS VL: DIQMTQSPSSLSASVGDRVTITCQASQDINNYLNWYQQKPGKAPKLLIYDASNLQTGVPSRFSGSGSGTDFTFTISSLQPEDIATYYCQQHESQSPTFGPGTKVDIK
Output: 30

The measured values listed here are drawn from patent US20240425606A1.
